Tested On: σ2R (Homo sapiens)
Construct: endogenous in cells; host or cells: HeLa control clone (non-specific CRISPR/Cas9 plasmid plus lentiCas9-Blast), membrane preparation
Method Description: Saturation binding on control (Scramble/Cas9) HeLa cell membranes
Test Parameters: control (Cas9) HeLa cell membranes, Supplementary Figure 2; duplicates, n=3
Observation Type: pKd
Formally, pKd is defined as -log10 of the concentration c, with c in mol/L.

So what pKd did COc1cc2c(cc1OC)CN(CCCCNC(=O)c1cc(I)cc(OC)c1OC)CC2 [[^125I]RHM-4] get with σ2R (Homo sapiens)?
8.96

###

Tested On: σ2R (Homo sapiens, UniProt Q5BJF2)
Construct: endogenous in cells; host or cells: HeLa control clone (non-specific CRISPR/Cas9 plasmid plus lentiCas9-Blast), membrane preparation
Sequence (Q5BJF2 whole entry): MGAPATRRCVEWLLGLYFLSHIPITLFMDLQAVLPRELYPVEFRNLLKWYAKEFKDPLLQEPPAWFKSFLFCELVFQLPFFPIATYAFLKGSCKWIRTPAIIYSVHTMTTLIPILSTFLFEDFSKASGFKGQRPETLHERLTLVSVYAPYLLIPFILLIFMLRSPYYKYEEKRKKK
Method Description: Saturation binding on control (Scramble/Cas9) HeLa cell membranes
Test Parameters: Scramble/Cas9 control HeLa cell membranes; saturation binding; 1 μM (+)-pentazocine to mask σ1R for [3H]DTG
Observation Type: pKd
Formally, pKd is defined as -log10 of the concentration c, with c in mol/L.

Return reported pKd; argument: COc1cc2c(cc1OC)CN(CCCCNC(=O)c1cc(I)cc(OC)c1OC)CC2 [[^125I]RHM-4]
9.06
